Below, each entry is listed with its recorded pIC50.
# Organism: Homo sapiens
# Measurement notes: Antiaggregatory activity against human platelet-rich plasma induced by ADP
# Format: functional, organism-based
Please express pIC50 as -log10 of the molar concentration.

Lookup result for N=C(N)c1ccc(NC(=O)c2ccc3c(c2)CN(CCc2ccccc2)C(=O)C(CC(=O)O)N3)cc1 (centres undefined) ; measured pIC50: 6.42

Lookup result for `N=C(N)NCCC[C@@H]1NC(=O)[C@@H]2CCCN2C(=O)[C@H]2CCCN2C(=O)CNC(=O)[C@H](CC(=O)O)NC(=O)CNC1=O` ; measured pIC50: 5.28

Lookup result for N=C(N)c1ccc(NC(=O)c2ccc3c(c2)NC(CC(=O)O)C(=O)N(CCc2ccccc2)C3)cc1 (centres undefined) ; measured pIC50: 6.82

Lookup result for `CN1C(=O)c2ccccc2SSc2ccccc2NC(=O)[C@H](CC(=O)O)NC(=O)CNC(=O)[C@@H]1CCCN=C(N)N` ; measured pIC50: 7.05
